Biological target: full-length human RORγt (GAL4-DBD-RORγt fusion) in HEK293T cells (Homo sapiens (Human), UniProt P51449)
Sequence (P51449 other isoform, or with tags, fused parts or gaps): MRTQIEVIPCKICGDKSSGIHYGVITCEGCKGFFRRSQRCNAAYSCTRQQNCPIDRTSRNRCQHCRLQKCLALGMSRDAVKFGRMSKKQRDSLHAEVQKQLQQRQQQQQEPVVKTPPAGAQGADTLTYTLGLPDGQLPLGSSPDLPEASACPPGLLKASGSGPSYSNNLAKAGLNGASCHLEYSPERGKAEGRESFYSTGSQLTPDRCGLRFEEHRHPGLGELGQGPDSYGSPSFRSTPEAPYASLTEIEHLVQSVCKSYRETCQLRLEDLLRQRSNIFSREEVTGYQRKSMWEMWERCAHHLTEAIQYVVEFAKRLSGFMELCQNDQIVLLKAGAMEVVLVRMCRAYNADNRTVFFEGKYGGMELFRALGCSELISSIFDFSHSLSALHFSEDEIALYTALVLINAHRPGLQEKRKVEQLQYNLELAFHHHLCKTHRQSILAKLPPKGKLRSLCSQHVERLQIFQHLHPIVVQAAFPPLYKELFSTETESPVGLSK
Assay: RORγt (full-length human) reporter assay, conditions A or B
Details: HEK293T cells; read-out: RORγt (FL) Reporter Assay A or B, IC50
Procedure: RORγt (Full-Length Human) Reporter Assay: HEK293T cells were plated at 35,000 per well in 96-well plate in medium of DMEM with 10% FBS. […] Firefly luciferase luminescence was measured using a BMG Pherastar plate reader. […] Renilla luminescence was measured using a BMG Pherastar plate reader. […] IC50s were generated by plotting final Renilla normalized data against compound concentration and percent inhibition was calculated against DMSO control. […]
reported_property: pIC50
# pIC50 is unitless: minus log10 of the molar concentration; print number only

Sample answers from the record:
compound | value_observed
CCn1nc(C(=O)NC[C@H]2CC[C@H](S(C)(=O)=O)CC2)c(Cl)c1-c1ccc(CC(C)(C)C(F)(F)F)nc1OC(F)F | 7.96
CCn1nc(C(=O)NC[C@H]2CC[C@H](S(C)(=O)=O)CC2)c(Cl)c1-c1cnc(CC(C)C(F)(F)F)cc1OC (stereo partly drawn) | 6.62

# next compound below
Task: Which pIC50 value is on record for CCn1nc(C(=O)NC[C@]2(O)CC[C@@H](S(C)(=O)=O)CC2)c(C)c1-c1cnc(C[C@@H](C)C(F)(F)F)cc1OC(F)F (single isomer, unassigned) ?
Result: 7.00

----------
Molecular target: full-length human RORγt (GAL4-DBD-RORγt fusion) in HEK293T cells (Homo sapiens (Human), UniProt P51449)
Experiment: RORγt (full-length human) reporter assay, conditions A or B
Details: HEK293T cells; read-out: RORγt (FL) Reporter Assay A or B, IC50
Listed molecules paired with reported IC50
Response body: numeric value in µM, unit text excluded.

Sample answers from the record:
molecule | reported_property | display_unit | value_observed
CCn1nc(C(=O)NC[C@]2(O)CC[C@@H](S(C)(=O)=O)CC2)c(C)c1-c1ccc(CC(C)(C)C(F)(F)F)nc1OC(F)F [Example 50] | IC50 | µM | 0.02
CCn1nc(C(=O)NC[C@H]2CC[C@H](S(C)(=O)=O)CC2)c(Cl)c1-c1cnc(C[C@H](C)C(F)(F)F)cc1OC(F)F (single isomer, unassigned) [Example 14] | IC50 | µM | 0.036

Task: Which IC50 value is on record for CCn1nc(C(=O)NC[C@H]2CC[C@H](S(C)(=O)=O)CC2)c(Cl)c1-c1cnc(CC(C(F)(F)F)C(F)(F)F)cc1OC(F)F [Example 21] ?
Result: 0.02

Task: Then what about the molecule CCn1nc(C(=O)NC[C@]2(O)CC[C@@H](S(C)(=O)=O)CC2)c(Cl)c1-c1cnc(C[C@@H](C)C(F)(F)F)cc1OC(F)F (single isomer, unassigned) [Example 18] ?
Result: 0.14

----------
Biological target: full-length human RORγt (GAL4-DBD-RORγt fusion) in HEK293T cells (Homo sapiens (Human))
Experiment: RORγt (full-length human) reporter assay, conditions A or B
Format: cell-based
Conditions: HEK-293T; 3 μM compound concentration (footnote *); read-out: RORγt (FL) Reporter Assay A or B, % inhibition
Listed compounds paired with reported inhibition at 3 µM
Response body: numeric value in %, unit text excluded.

Task: Which inhibition at 3 µM value is on record for CCn1nc(C(=O)NC[C@H]2CC[C@H](S(C)(=O)=O)CC2)c(C)c1-c1cnc(C[C@H](C)C(F)(F)F)cc1OC(F)F (single isomer, unassigned) [Example 16] ?
Result: 101

Task: Then what about the compound CCn1nc(C(=O)NC[C@H]2CC[C@H](S(C)(=O)=O)CC2)c(C)c1-c1cnc(CC(C)(C)C(F)(F)F)cc1OC(F)F [Example 13] ?
Result: 91

Task: Then what about the compound CCn1nc(C(=O)NC[C@H]2CC[C@H](S(C)(=O)=O)CC2)c(Cl)c1-c1cnc(CC(C)(C)C(F)(F)F)cc1OC(F)F [Example 9] ?
Result: 117

Task: Then what about the compound Cn1nc(C(=O)NC[C@H]2CC[C@H](S(C)(=O)=O)CC2)c(Cl)c1-c1cnc(CC(C)(C)C(F)(F)F)cc1OC(F)F [Example 30] ?
Result: 98

Task: Then what about the compound CCn1nc(C(=O)NC[C@]2(O)CC[C@@H](S(C)(=O)=O)CC2)c(Cl)c1-c1cnc(CCCC(F)(F)F)cc1OC(F)F [Example 33] ?
Result: 66

Task: Then what about the compound CCn1nc(C(=O)NC[C@]2(O)CC[C@@H](S(C)(=O)=O)CC2)c(C)c1-c1cnc(CC(C(F)(F)F)C(F)(F)F)cc1OC(F)F [Example 24] ?
Result: 113

Task: Then what about the compound CCn1nc(C(=O)NC[C@H]2CC[C@H](S(C)(=O)=O)CC2)c(Cl)c1-c1cnc(CC(C)(C)C(F)F)cc1OC(F)F [Example 37] ?
Result: 98

Task: Then what about the compound CCn1nc(C(=O)NC[C@]2(O)CC[C@@H](S(C)(=O)=O)C[C@H]2O)c(Cl)c1-c1cnc(CC(C)(C)C(F)F)cc1OC(F)F (stereo in doubt) [Example 40] ?
Result: 84

Task: Then what about the compound CCn1nc(C(=O)NC[C@]2(O)CC[C@@H](S(C)(=O)=O)CC2)c(Cl)c1-c1cnc(CC(C)(C)C(F)F)cc1OC(F)F [Example 38] ?
Result: 88

Task: Then what about the compound CCn1nc(C(=O)NC[C@H]2CC[C@H](S(C)(=O)=O)CC2)c(Cl)c1-c1cnc(C[C@@H](C)C(F)(F)F)cc1OC(F)F (single isomer, unassigned) [Example 17] ?
Result: 125

Task: Then what about the compound CCn1nc(C(=O)NC[C@@]2(O)CC[C@H](S(C)(=O)=O)C[C@@H]2O)c(Cl)c1-c1cnc(CC(C)(C)C(F)F)cc1OC(F)F (stereo in doubt) [Example 39] ?
Result: 72

Task: Then what about the compound CCn1nc(C(=O)NC[C@]2(O)CC[C@@H](S(C)(=O)=O)CC2)c(C)c1-c1cnc(CC(C)(C)C(F)(F)F)cc1C(F)F [Example 28] ?
Result: 76

Data origin: patent US11034658B2
